# experimental_system: r(GGGGCC)8
# protocol_text: Biolayer interferometry (BLI) binding affinity, r(GGGGCC)8
# assay_setup: BLI kinetic binding; no additional cation
measured_quantity: pKd
For clarity, pKd is expressed as the negative log10 of concentration in mol/L.

mol_smiles: CCN(CC)CCNC(=O)c1cc2cc(NC(=O)c3cc4cc(N)ccc4[nH]3)ccc2[nH]1
quantitative_readout: 4.80

Now consider the entry below.
Consider the compound Cc1c2cc[n+](CCN3CCCCC3)cc2c(C)c2c1[nH]c1ccc(O)cc12 and give its measured pKd.
5.01
